Measured log10 of TGI by item
tested on: T-47D breast; test: NCI tumour cell line growth inhibition, 48 h
measuredMetric: log10 of TGI (log10 of the value in µM)

{"columns": ["molecule", "measuredValue"],
 "data": [
  ["O=[N+]([O-])c1cc(S(=O)(=O)Oc2ccccc2)ccc1Cl", 0.73],
  ["C/C1=C\\[C@@H](O)C(=O)/C=C/C=C\\c2csc(n2)[C@@H](C)NC(=O)C[C@@]2(CC1)S(=O)SC(=O)[C@]2(C)O (stereo not given in full)", -1.66],
  ["CC1=CC(=O)C(O)C2(C)C1CC(O)C13COC4(C)C(OC(=O)C41)C(O)C23 (stereo not given)", 1.82],
  ["N#CN1CC[C@H](C(=O)Nc2ncc(-c3ccncc3)s2)C1", 0.09],
  ["CC1=NN(C(=O)CSc2nc3ccc(I)cc3c(=O)n2Cc2ccccc2)C(=O)C1", 1.78],
  ["Nc1ccc(CCN2CCN(CCCc3ccccc3)CC2)cc1", 1.98],
  ["COc1ccc(-c2cc(=O)c3c(OC)c(OC)c(OC)c(OC)c3o2)cc1", 1.77],
  ["CC1(C)OC2C(=O)C=C(COCc3ccccc3)C2O1 (stereo not given)", 1.75]
]}

----------
system: SN12C renal; assay: NCI tumour cell line growth inhibition, 48 h
Where a SMILES comes first, the peptide text is derived from it. [ ]: non-standard residue; d: D form. The star is where a group is joined. mTyr = N[CH](Cc1cccc(O)c1)C(=O)O; Cbz = O=C(OCc1ccccc1)*; OBn = c1ccc(CO*)cc1
Quick reference: TGI of the listed items.

{"columns": ["compound", "TGI"],
 "data": [
  ["Fc1cccc(C2SCc3nc4ccccc4n32)c1F (stereo not drawn)", "> 100 µM"],
  ["Cc1cc(N(CCC#N)CCC#N)ccc1/C=C1N=C(/C=C\\c2ccccc2)N(c2ccc(Cl)cc2)C\\1=O", "> 100 µM"],
  ["COc1ccc2c(c1)CCN1CCc3cc(OC)c(OC)cc3CC21 (stereo not drawn)", "> 100 µM"],
  ["COc1ccc(C2[C@@H](Cl)C(=O)N2c2cc(OC)c(OC)c(OC)c2)cc1Cl (stereo partly drawn)", "> 100 µM"],
  ["COC(=O)c1c(O)ccc2c1C1(Cc3ccccc3C1=O)C(O)O2 (stereo not drawn)", "86.2 µM"],
  ["CCCCCn1sc(=O)n(Cc2ccc(CNC(=O)OCc3ccc4cccc(O)c4n3)cc2)c1=O", "2.82 µM"],
  ["COC(=O)c1c(OC(C)=O)ccc2c1c1c(OC(C)=O)c3ccccc3c(OC(C)=O)c1n2Cc1ccccc1", "> 50 µM"],
  ["Cc1cc(NCCCCCCCNc2cc(C)nc3cc([N+](=O)[O-])ccc23)c2ccc([N+](=O)[O-])cc2n1", "13.4 µM"],
  ["Cc1nc2ccccc2c(/C=C/c2ccc(Br)cc2)c1C(=O)/C=C/c1ccccc1", "3.68 µM"],
  ["Cc1nc(-c2ccc(N=Cc3ccc(N(CCOS(C)(=O)=O)CCOS(C)(=O)=O)cc3C)cc2)cs1", "> 100 µM"],
  ["CSCCC(NC(=O)Cc1ccc(C(=O)c2ccccc2)cc1)C(=O)O (stereo not drawn)", "> 100 µM"],
  ["CN(CC(N)=O)C(=O)N(CCCl)N=O", "> 100 µM"],
  ["C/C(=C/CC[C@]1(CO)CC[C@]2(CO)[C@H](CC[C@@H]3[C@@]4(C)CC[C@H](OC5OCC(O)C(O)C5OC5OC(CO)C(O)C(O)C5O)C(C)(C)[C@@H]4CC[C@]32C)[C@H]1O)CO (stereo partly drawn)", "> 100 µM"],
  ["COC(=O)C(C)(C)N=CN(C)C", "> 100 µM"],
  ["CC1(O)OC(=O)C2=C1CCC1C2CCC2(C)C(O)CCC12 (stereo not drawn)", "> 100 µM"],
  ["N#Cc1c(N)[nH]c2ccc(Sc3ccccc3)cc12", "6.64 µM"],
  ["CN(CCCCCl)P(=O)(OCCS(=O)(=O)CC(NC(=O)CCC(N)C(=O)O)C(=O)NC(C(=O)O)c1ccccc1)OCC1OC(n2cc(F)c(=O)[nH]c2=O)CC1O (stereo not drawn)", "16.9 µM"],
  ["O=C(CC(=O)Nc1ccccc1)N/N=C/c1cc(N=Nc2ccc(Br)cc2)ccc1O", "> 10 µM"],
  ["Cc1cccc(NC(=O)c2sc3nc4c(cc3c2N)CN(Cc2ccccc2)CC4)c1C", "> 50 µM"],
  ["COc1cc(C(c2ccc3c(c2)OCO3)N2C(=O)CCC2C(=O)O)cc(OC)c1OC (stereo not drawn)", "> 100 µM"],
  ["CC(C)C1=CC23CCC4C(C)(C(=O)O)CCCC4(C)C2CC1C1C(=O)N(c2ccc(C(=O)O)cc2)C(=O)C13 (stereo not drawn)", "> 100 µM"],
  ["Cc1ccc(S(=O)OC2C3CC4CC(C3)CC2C4)cc1 (stereo not drawn)", "> 100 µM"],
  ["O=C(Nc1cccc(Nc2ncc(Br)c(NCCc3cnc[nH]3)n2)c1)N1CCCC1", "33.6 µM"],
  ["O=C(CSC1=NCCN1)Nc1ccccc1", "41.1 µM"],
  ["CC1(C)C2CCC13CS(=O)(=O)N1O[C@]13C(=O)O2 (stereo partly drawn)", "> 100 µM"],
  ["Cc1ccc(N=Nc2c(O)c(C(=O)Nc3ccccc3)cc3ccccc23)c([N+](=O)[O-])c1", "> 100 µM"],
  ["COc1cc(C2C3=C(COC3=O)Oc3cc4c(cc32)OCO4)cc(OC)c1OC(C)=O (stereo not drawn)", "> 100 µM"],
  ["O=C(O)COc1c(Cl)cc(Cl)c2cccnc12", "> 100 µM"],
  ["CC(C)CN=C(N)N=C(N)N", "> 100 µM"],
  ["CC(=O)OCC1OC(n2c(=O)[nH]c(=O)c3sccc32)C(Br)C1OC(C)=O (stereo not drawn)", "> 100 µM"],
  ["COC(=O)C(Cc1cccc(O)c1)NC(=O)C(CC(=O)OCc1ccccc1)NC(=O)OCc1ccccc1 (stereo not drawn) (Cbz-Asp(OBn)-[mTyr]-OMe; configuration not given here)", "> 100 µM"],
  ["CC(C)[C@@H]1ON1C(C)c1ccccc1 (stereo partly drawn)", "> 100 µM"],
  ["C/C=C(\\C)c1cc(O)c(C)c2c1Oc1cc(O)c(Cl)c(C)c1C(=O)O2", "30.9 µM"]
]}
